molecular target: Voltage-gated inwardly rectifying potassium channel KCNH2 (Homo sapiens) (UniProt Q12809); test: Human Ether-a-go-go-Related Gene (hERG) channel small molecule antagonists: fluorescence cell-based qHTS assay (AID 1671200); conditions: hERG-U2OS cells, FluxOR thallium flux fluorescence; series mostly up to 76.8 µM; also: nearly all actives have a fitted effect of over 50% in size
Sequence (Q12809 whole entry, looked up): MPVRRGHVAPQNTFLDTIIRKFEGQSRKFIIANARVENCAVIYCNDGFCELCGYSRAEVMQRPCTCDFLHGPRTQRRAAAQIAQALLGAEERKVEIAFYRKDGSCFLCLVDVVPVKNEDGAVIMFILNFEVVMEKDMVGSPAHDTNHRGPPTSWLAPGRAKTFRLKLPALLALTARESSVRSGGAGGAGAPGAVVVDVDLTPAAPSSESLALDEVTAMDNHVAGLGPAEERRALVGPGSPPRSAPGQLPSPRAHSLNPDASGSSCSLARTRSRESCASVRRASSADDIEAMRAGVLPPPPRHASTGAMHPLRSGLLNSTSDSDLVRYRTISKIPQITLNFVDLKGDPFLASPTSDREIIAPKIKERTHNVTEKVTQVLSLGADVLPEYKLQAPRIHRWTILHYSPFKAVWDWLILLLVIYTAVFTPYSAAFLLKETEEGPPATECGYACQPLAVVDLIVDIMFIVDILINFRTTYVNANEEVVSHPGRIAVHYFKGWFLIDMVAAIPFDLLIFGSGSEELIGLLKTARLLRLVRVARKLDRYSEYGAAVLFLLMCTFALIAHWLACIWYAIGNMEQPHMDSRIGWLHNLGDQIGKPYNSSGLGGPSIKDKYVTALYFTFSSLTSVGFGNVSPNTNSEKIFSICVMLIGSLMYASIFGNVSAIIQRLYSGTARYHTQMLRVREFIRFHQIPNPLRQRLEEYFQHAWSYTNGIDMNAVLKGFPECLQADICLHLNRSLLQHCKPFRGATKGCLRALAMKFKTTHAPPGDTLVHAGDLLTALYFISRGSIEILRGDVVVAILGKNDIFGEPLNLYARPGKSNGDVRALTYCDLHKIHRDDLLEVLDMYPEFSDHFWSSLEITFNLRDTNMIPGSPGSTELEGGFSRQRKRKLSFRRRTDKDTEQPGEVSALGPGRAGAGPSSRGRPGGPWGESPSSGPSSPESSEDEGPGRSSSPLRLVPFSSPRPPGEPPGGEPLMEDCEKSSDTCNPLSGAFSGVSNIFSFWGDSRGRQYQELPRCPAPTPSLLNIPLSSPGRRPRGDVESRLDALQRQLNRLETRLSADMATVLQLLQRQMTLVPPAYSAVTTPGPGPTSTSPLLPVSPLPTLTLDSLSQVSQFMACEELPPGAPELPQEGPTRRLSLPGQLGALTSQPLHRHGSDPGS
Results filed as inconclusive are left out. Active and inactive are the calls of the source. Calls follow the shape of the dose curve; as a rule, active = well fitted inhibition curve with a large enough effect in the repeat runs; inconclusive = weak or mixed curves; inactive = flat fitted curve, though single readings scatter.
Outcome codes: active, inactive

INSERT INTO measurements (compound, target_system, cat) VALUES
  ('CN1CCC(=C2c3ccccc3Sc3ccccc32)CC1', 'Voltage-gated inwardly rectifying potassium channel KCNH2 (Homo sapiens) (UniProt Q12809)', 'active'),
  ('CCCCC(CC)COC(=O)CCCCCCCCC(=O)OCC(CC)CCCC (stereo unspecified)', 'Voltage-gated inwardly rectifying potassium channel KCNH2 (Homo sapiens) (UniProt Q12809)', 'inactive'),
  ('CCC(=O)O[C@]1(C(=O)CCl)[C@@H](C)C[C@H]2[C@@H]3CCC4=CC(=O)C=C[C@]4(C)[C@@]3(F)[C@@H](O)C[C@@]21C', 'Voltage-gated inwardly rectifying potassium channel KCNH2 (Homo sapiens) (UniProt Q12809)', 'inactive'),
  ('COc1ccc(-c2nc3ccc(C4=NNC(=O)CC4C)cc3[nH]2)cc1 (stereo unspecified)', 'Voltage-gated inwardly rectifying potassium channel KCNH2 (Homo sapiens) (UniProt Q12809)', 'inactive'),
  ('CCNc1cc(O)ccc1C', 'Voltage-gated inwardly rectifying potassium channel KCNH2 (Homo sapiens) (UniProt Q12809)', 'inactive'),
  ('CC(COCCO)OCCO (stereo unspecified)', 'Voltage-gated inwardly rectifying potassium channel KCNH2 (Homo sapiens) (UniProt Q12809)', 'inactive'),
  ('C=CCOC(=O)CCC1CCCCC1', 'Voltage-gated inwardly rectifying potassium channel KCNH2 (Homo sapiens) (UniProt Q12809)', 'inactive'),
  ('CC(C)(C)OCC1CO1 (stereo unspecified)', 'Voltage-gated inwardly rectifying potassium channel KCNH2 (Homo sapiens) (UniProt Q12809)', 'inactive'),
  ('C=C(C)C(=O)OCCO', 'Voltage-gated inwardly rectifying potassium channel KCNH2 (Homo sapiens) (UniProt Q12809)', 'inactive'),
  ('O=C(O)c1ccco1', 'Voltage-gated inwardly rectifying potassium channel KCNH2 (Homo sapiens) (UniProt Q12809)', 'inactive'),
  ('CN(Cc1ccc(C(C)(C)C)cc1)Cc1cccc2ccccc12', 'Voltage-gated inwardly rectifying potassium channel KCNH2 (Homo sapiens) (UniProt Q12809)', 'active'),
  ('CCCn1cnc2c1c(=O)n(CCCCC(C)=O)c(=O)n2C', 'Voltage-gated inwardly rectifying potassium channel KCNH2 (Homo sapiens) (UniProt Q12809)', 'inactive'),
  ('C#C[C@]1(O)CC[C@H]2[C@@H]3CCc4cc(OC5CCCC5)ccc4[C@H]3CC[C@@]21C', 'Voltage-gated inwardly rectifying potassium channel KCNH2 (Homo sapiens) (UniProt Q12809)', 'inactive'),
  ('C#Cc1cccc(Nc2ncnc3cc(OCCOC)c(OCCOC)cc23)c1', 'Voltage-gated inwardly rectifying potassium channel KCNH2 (Homo sapiens) (UniProt Q12809)', 'inactive'),
  ('CC(=O)NO', 'Voltage-gated inwardly rectifying potassium channel KCNH2 (Homo sapiens) (UniProt Q12809)', 'inactive'),
  ('CCCCC1=NC2(CCCC2)C(=O)N1Cc1ccc(-c2ccccc2-c2nn[nH]n2)cc1', 'Voltage-gated inwardly rectifying potassium channel KCNH2 (Homo sapiens) (UniProt Q12809)', 'inactive'),
  ('C=CC(=O)OCCOCCOCCOCCOC(=O)C=C', 'Voltage-gated inwardly rectifying potassium channel KCNH2 (Homo sapiens) (UniProt Q12809)', 'inactive'),
  ('C[N+](C)(C)CCOC(=O)CCC(=O)OCC[N+](C)(C)C', 'Voltage-gated inwardly rectifying potassium channel KCNH2 (Homo sapiens) (UniProt Q12809)', 'inactive'),
  ('O=C(OCCc1ccccc1)c1ccccc1', 'Voltage-gated inwardly rectifying potassium channel KCNH2 (Homo sapiens) (UniProt Q12809)', 'inactive'),
  ('CC(C)CC(=O)C1C(=O)c2ccccc2C1=O', 'Voltage-gated inwardly rectifying potassium channel KCNH2 (Homo sapiens) (UniProt Q12809)', 'inactive'),
  ('CCOc1ccc(N)c([N+](=O)[O-])c1', 'Voltage-gated inwardly rectifying potassium channel KCNH2 (Homo sapiens) (UniProt Q12809)', 'inactive'),
  ('Cc1ccc(C(=O)Oc2ccc(C(O)CNC(C)(C)C)cc2OC(=O)c2ccc(C)cc2)cc1 (stereo unspecified)', 'Voltage-gated inwardly rectifying potassium channel KCNH2 (Homo sapiens) (UniProt Q12809)', 'active'),
  ('Brc1c2ccccc2cc2ccccc12', 'Voltage-gated inwardly rectifying potassium channel KCNH2 (Homo sapiens) (UniProt Q12809)', 'inactive'),
  ('c1ccc(C(O[C@H]2CCCN(CCc3ccc4c(c3)OCO4)C2)c2ccccc2)cc1', 'Voltage-gated inwardly rectifying potassium channel KCNH2 (Homo sapiens) (UniProt Q12809)', 'active'),
  ('CCC(Cl)CCC(Cl)C(Cl)CC(Cl)C(Cl)C(Cl)CCl (stereo unspecified)', 'Voltage-gated inwardly rectifying potassium channel KCNH2 (Homo sapiens) (UniProt Q12809)', 'inactive'),
  ('CCCCCCCCCCO[C@@H]1O[C@H](CO)[C@@H](O)[C@H](O)[C@H]1O', 'Voltage-gated inwardly rectifying potassium channel KCNH2 (Homo sapiens) (UniProt Q12809)', 'inactive');

Cited source for all entries: PubChem BioAssay (Tox21)
